System: unidentified trypsin-sensitive surface protein(s) of human corneal epithelial cells (HCECs) (Homo sapiens)
assay_remarks: flow
condition_set: 3'-cholesterol, inserted in CsA liposome (about 690 strands per liposome); polyvalent liposome on whole cells; PBS, room temperature
metric_name: Kd (nM)
Please state the figure in nM; there is no need to write the unit.

Request: Find the recorded Kd belonging to GACGACGGCAAGGGGAAAGTGGTCGTAATCACGACGGTCGTCTTTTT [Cornea-S1-chol liposome] and report it.
Result: 1.2

###

The following sequences are shown together with reported Kd values.
Tested on: unidentified trypsin-sensitive surface protein(s) of human corneal epithelial cells (HCECs) (Homo sapiens)
assay_remarks: flow
condition_set: 3'-FAM; whole-cell apparent Kd; PBS, room temperature, 30 min; trypsin treatment lowers binding
Please state the figure in nM; there is no need to write the unit.

[[record]]
sequence_content = "GACGACGGCAAGGGGAAAGTGGTCGTAATCACGACGGTCGTC [FAM-Cornea-S1]"
metric_name = "Kd"
unit_text = "nM"
result_number = 362


Attention now turns to another entry.
Request: Find the recorded Kd belonging to GACGACTTATGCTTGGGACCTGATCCGGACTACGGTGTCGTC [FAM-Cornea-S2] and report it.
Result: 174

###

System: unidentified trypsin-sensitive surface protein(s) of human corneal epithelial cells (HCECs) (Homo sapiens)
assay_remarks: flow
condition_set: 3'-cholesterol, inserted in CsA liposome (about 690 strands per liposome); polyvalent liposome on whole cells; p92 gives 15.1 nM
metric_name: Kd (nM)
Please state the figure in nM; there is no need to write the unit.

Request: Find the recorded Kd belonging to GACGACTTATGCTTGGGACCTGATCCGGACTACGGTGTCGTCTTTTT [Cornea-S2-chol liposome] and report it.
Result: 15
